assay: protein stability index of a GFP-peptide fusion (GPS, HEK-293T) (PSI 1-6); higher = more stable; settings: treatment: MLN4924 1 uM, 8 h; c terminus: a fixed tail appended;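 note: 24-mer peptide tiles fused after GFP, lentivirally expressed, FACS-sorted into six equal bins by GFP/DsRed ratio, decoded by Illumina sequencing, PSI is the read-weighted mean bin number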
1 means recorded protein stability index is 4 or above; -1 means it is below 4.

Exercise: Does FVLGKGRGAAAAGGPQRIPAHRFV [BTBD1] have a reported protein stability index of at least 4?
Solution: -1

Exercise: Does RAVQGPEETVTQDCLQLIADSETP [TNFSF13B] have a reported protein stability index of at least 4?
Solution: 1

Exercise: Does SLLGLLSFPRNNISYLVLSMISMG [JAGN1] have a reported protein stability index of at least 4?
Solution: -1

Exercise: Does RYAEHVAATQALPQDSGTAAWKGR [C22orf31] have a reported protein stability index of at least 4?
Solution: 1

Exercise: Does VAFLEQRASALLASCSKNCTNSPA [FBXO34] have a reported protein stability index of at least 4?
Solution: -1

Exercise: Does EEHTTILRPSYTGLSSSSARFLSR [CDC14A] have a reported protein stability index of at least 4?
Solution: -1

Exercise: Does QSIIAIIRAMGRLKIDFGDSARAD [GNAI1] have a reported protein stability index of at least 4?
Solution: -1

----------
test: protein stability index of a GFP-peptide fusion (GPS, HEK-293T) (PSI 1-6); higher = more stable; details: treatment: MLN4924 1 uM, 8 h; c terminus: a fixed tail appended
For each of the sequences below, state its protein stability index.
Enter a number only.

Exercise: Return reported protein stability index; argument: DDGTYSQVQCHSYTGYCWCVTPNG [SMOC2]
Solution: 2.66

Exercise: Return reported protein stability index; argument: ISKNSEKKMESEEDSNWEKSPDNE [GOLPH3L]
Solution: 5.58

Exercise: Return reported protein stability index; argument: PNHLGGGAVVLGAESHASKDVAID [STX5]
Solution: 5.15

Exercise: Return reported protein stability index; argument: LGDCMRTLGYMPTEMELLEVSQHI [CABP4]
Solution: 2.57

Exercise: Return reported protein stability index; argument: QTRRASALIDRPAPYFERSSSKRY [EPB41L3]
Solution: 4.17

Exercise: Return reported protein stability index; argument: NILFDFVKKKKEEGVIDSSDKEIV [EIF5]
Solution: 3.74

Exercise: Return reported protein stability index; argument: INGSEGDGAEIAEKFVFFIGSKNG [DYNC2LI1]
Solution: 3.4

Exercise: Return reported protein stability index; argument: AEEEEEEEEEVDLACTPTDVRDVD [CCND1]
Solution: 5.41

Exercise: Return reported protein stability index; argument: MGLYDGMEHLIYGEPRKLLTQDWV [MAGEA10]
Solution: 2.28

Exercise: Return reported protein stability index; argument: GYSTHADFVLEMNTAKSTSRVTAF [NLN]
Solution: 2.51

Exercise: Return reported protein stability index; argument: SMIQEQFKKGKNPTGLLALQQIAD [ADD1]
Solution: 3.17

Exercise: Return reported protein stability index; argument: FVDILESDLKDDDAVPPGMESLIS [CDC25B]
Solution: 3.94

Exercise: Return reported protein stability index; argument: HLDPGFLASDKTSAGNAPLNEEIN [C18orf25]
Solution: 4.97

Exercise: Return reported protein stability index; argument: DMMVMGRKPDPMCVFTYVQSLYNH [SMTNL2]
Solution: 2.2

Exercise: Return reported protein stability index; argument: DPTNWLRCYYYEDTISTIKSVAWE [NCF4]
Solution: 2.47

Exercise: Return reported protein stability index; argument: LLVINESIESIKWMIEEKATITSR [LURAP1L]
Solution: 2.51

Exercise: Return reported protein stability index; argument: FLSENATVAAETRAVIAWMEKIPF [CPXM2]
Solution: 2.28

Exercise: Return reported protein stability index; argument: LQYSTQVHTEFTLRNFNSAKDMKK [MATN2]
Solution: 4.08

Exercise: Return reported protein stability index; argument: DFHLSIHSDMAAIVKAMASPESGL [DVL3]
Solution: 2.85

Exercise: Return reported protein stability index; argument: GHPYRGASQFLASASSSTTCCEST [IRX6]
Solution: 4.3

Exercise: Return reported protein stability index; argument: YNDGVINLLEKFFEMKKGQCKDAL [SNAP91]
Solution: 2.34

Exercise: Return reported protein stability index; argument: RGDERILSILRHQNLLKELQDLAL [CHGA]
Solution: 2.41

Exercise: Return reported protein stability index; argument: GSSGGQQPSGMKEGVKRYEQEHAA [CHCHD6]
Solution: 5.47

Exercise: Return reported protein stability index; argument: TIYGLHALEQGGLRAATMSAVEAA [PYCR3]
Solution: 3.22

Exercise: Return reported protein stability index; argument: SLSTSSSSSPPGTPSPADAKAPPT [CEBPB]
Solution: 5.34

Exercise: Return reported protein stability index; argument: NEVRRGSPVLLGWVEQAYADKCVC [TIAF1]
Solution: 2.88

Exercise: Return reported protein stability index; argument: DDFRTKYQTEQSLRQLVESDINSL [KRT33B]
Solution: 4.39
